- Tested on: E. coli (ATCC 25922)
- Experimental protocol: microbe, parasite or virus in culture
- Experimental context: Escherichia coli, ATCC25922, read-out: MIC Compound alone, Table 12
The following compounds are listed with their measured MIC values.
Reply with just the number (in µg/mL).

Here are 2 compounds together with their reported answers.
[
  {
    "Compound": "C[C@@H](O)[C@H]1C(=O)N2C(C(=O)O)=C(SCCN=CN)C[C@H]12 [Imipenem, reference compound]",
    "Units label": "µg/mL",
    "Reported": 0.5
  },
  {
    "Compound": "CO/N=C(\\C(=O)N[C@@H]1C(=O)N2C(C(=O)O)=C(CSc3nc(=O)c(=O)[nH]n3C)CS[C@H]12)c1csc(N)n1 [Ceftriaxone, reference compound]",
    "Units label": "µg/mL",
    "Reported": 0.06
  }
]

Next, consider the following compound.
Q: Short answer please: MIC, E. coli (ATCC 25922), entry COc1cc(Cc2cnc(N)nc2N)cc(OC)c1OC [Trimethoprim, reference compound]
Result: 0.5
